Data origin, for the record: paper PMC6001238

Kindly supply the reported pIC50 values for the records listed here.
- Test system: Murine leukemia (L1210) cells
- assayMethodText: Cytostatic activity, L1210 cell proliferation
- Format: cell-based
- cond: mean ± SD of three experiments; highest concentration tested 250 µM; 2 days; read-out: Toxicity (IC50) L1210
Would you please state pIC50, meaning minus log10 of the concentration in mol/L, as a bare number?

Reported pIC50, compound C#Cc1ccc(-c2ccc(C(=O)NCCCNC(=O)[C@H]3NC(=O)[C@H]4NC(=O)[C@H](NC(=O)[C@@H]5NC(=O)[C@H](CC(N)=O)NC(=O)[C@H](NC(=O)[C@@H](CC(C)C)NC)[C@H](O)c6ccc(c(Cl)c6)Oc6cc5cc(c6O[C@@H]5O[C@H](CO)[C@@H](O)[C@H](O)[C@H]5O[C@H]5C[C@](C)(N)[C@H](O)[C@H](C)O5)Oc5ccc(cc5Cl)[C@H]4O)c4ccc(O)c(c4)-c4c(O)cc(O)cc43)cc2)cc1 : ____
5.00

What would you report for CNC(CC(C)C)C(=O)NC1C(=O)NC(CC(N)=O)C(=O)NC2C(=O)NC3C(=O)NC(C(=O)NC(C(=O)NCCCNC(=O)c4cc5ccccc5[nH]4)c4cc(O)cc(O)c4-c4cc3ccc4O)C(O)c3ccc(c(Cl)c3)Oc3cc2cc(c3OC2OC(CO)C(O)C(O)C2OC2CC(C)(N)C(O)C(C)O2)Oc2ccc(cc2Cl)C1O (stereo not drawn) ?
3.79

Now this one: CNC(CC(C)C)C(=O)NC1C(=O)NC(CC(N)=O)C(=O)NC2C(=O)NC3C(=O)NC(C(=O)NC(C(=O)NCC(=O)Nc4ccc(C(=O)c5ccccc5)cc4)c4cc(O)cc(O)c4-c4cc3ccc4O)C(O)c3ccc(c(Cl)c3)Oc3cc2cc(c3OC2OC(CO)C(O)C(O)C2OC2CC(C)(N)C(O)C(C)O2)Oc2ccc(cc2Cl)C1O (stereo not drawn)
3.90
